- Test system: HepG2 cells
- Assay text: HepG2 cell toxicity assay (Alamar Blue)
- Setup conditions: 2 days, mean (SD in text)
# maps each entry to its TC50, HepG2 cell toxicity assay
Give the value, in units of µM, as a plain number.

# Compound, TC50, HepG2 cell toxicity assay (µM)
measured = [
    ("CN1CCC2=C[C@H](O)[C@H]3OC(=O)c4cc5c(cc4[C@H]3[C@@H]21)OCO5", 128.10),
]

May I ask what TC50, HepG2 cell toxicity assay has been recorded for `O=C1N[C@@H]2C(=C[C@H](O)[C@@H](O)[C@H]2O)c2cc3c(c(O)c21)OCO3` ?
2.73

May I ask what TC50, HepG2 cell toxicity assay has been recorded for O=C(Cn1ccnc1[N+](=O)[O-])NCc1ccccc1 [BNZ, benznidazole, reference compound] ?
168.76

May I ask what TC50, HepG2 cell toxicity assay has been recorded for `CO[C@H]1C=C2[C@H]3C[N@@](Cc4cc5c(cc43)OCO5)[C@H]2C[C@@H]1O` ?
46.10

May I ask what TC50, HepG2 cell toxicity assay has been recorded for `O[C@H]1[C@H]2c3cc4c(cc3CN3CCC(=C[C@@H]1O)[C@H]23)OCO4` ?
21.87
